Item-by-item account of MIC
Test system: Streptococcus pyogenes, ATCC 700294
Assay: Minimal inhibitory concentration assay (microbroth dilution)
Format: cell-based
Conditions: Streptococcus pyogenes, ATCC700294; read-out: Minimal Inhibitory Concentrations S. pyogenes ATCC 700294
*1 amine or outer side, *2 acyl side, *3 side chain or, on linkers, in order; H or OH if unused. Where a SMILES comes first, the peptide text is derived from it. Bridges are numbered along the chain shown (N, C = ends). [ ]: non-standard residue; d: D form. The star is where a group is joined. Phe(3,5-F2) = N[C@@H](Cc1cc(F)cc(F)c1)C(=O)O; NH(4-OCF3-phenyl) = FC(F)(F)Oc1ccc(N*)cc1; Pro(4S-Me) = C[C@@H]1CN[C@H](C(=O)O)C1; Pro(4R-Me) = C[C@H]1CN[C@H](C(=O)O)C1; NH(4-Et-phenyl) = CCc1ccc(N*)cc1; NMeT = CN[C@H](C(=O)O)[C@@H](C)O; aThr = C[C@H](O)[C@H](N)C(=O)O; CO = O=C([*:1])[*:2]
Your answer is read as µM, so omit the unit and give the number.

Some compounds with recorded MIC:
compound="C[C@H]1C[C@H]2C(=O)O[C@@H](C)[C@H](NC(=O)[C@H](Cc3cc(F)cc(F)c3)NC(=O)Nc3ccc(OC(F)(F)F)cc3)C(=O)N3CCC[C@H]3C(=O)N(C)[C@@H]([C@@H](C)O)C(=O)N[C@@H](C)C(=O)N2C1 [Compound 36] ({NH(4-OCF3-phenyl)-CO}-[Phe(3,5-F2)][aThr]P[NMeT]A[Pro(4S-Me)]; ester 2-C)" measured_metric=MIC endpoint_value=0.2
compound="CCc1ccc(NC(=O)N[C@@H](Cc2cc(F)cc(F)c2)C(=O)N[C@@H]2C(=O)N3CCC[C@H]3C(=O)N(C)[C@@H]([C@@H](C)O)C(=O)N[C@@H](C)C(=O)N3C[C@H](C)C[C@H]3C(=O)O[C@H]2C)cc1 [Compound 42] ({NH(4-Et-phenyl)-CO}-[Phe(3,5-F2)][aThr]P[NMeT]A[Pro(4R-Me)]; ester 2-C)" measured_metric=MIC endpoint_value=0.05

// below: MIC requested for another compound
GET /value?item= `CCc1ccc(NC(=O)N[C@@H](Cc2ccccc2)C(=O)N[C@H]2COC(=O)[C@@H]3C[C@@H](C)CN3C(=O)[C@H](C)NC(=O)[C@@H]3CCCCN3C(=O)[C@@H]3CCCN3C2=O)cc1` &field=MIC returns 0.2

The reported numbers originate from patent US10457707B2.
